Origin of the recorded values: patent US7541364B2

A collection of molecules and their measured IC50
Target: δ receptor (Cavia porcellus)
Sequence (A0A286XTF2 1-366): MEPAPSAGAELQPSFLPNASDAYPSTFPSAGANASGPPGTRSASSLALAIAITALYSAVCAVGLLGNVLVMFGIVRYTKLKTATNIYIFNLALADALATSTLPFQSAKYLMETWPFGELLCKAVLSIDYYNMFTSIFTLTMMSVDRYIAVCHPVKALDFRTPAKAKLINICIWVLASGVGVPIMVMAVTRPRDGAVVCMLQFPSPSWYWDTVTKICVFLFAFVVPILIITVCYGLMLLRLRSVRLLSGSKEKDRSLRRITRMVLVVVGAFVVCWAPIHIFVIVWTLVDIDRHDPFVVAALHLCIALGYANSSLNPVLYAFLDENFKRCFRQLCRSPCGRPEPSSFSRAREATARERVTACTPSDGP

smiles.str | readout.units | IC50
CN1CC[C@]23c4c5ccc(O)c4O[C@H]2c2ncc(-c4ccc(Br)cc4)cc2C[C@H]3[C@H]1C5 | nM | 55
CN1CC[C@]23c4c5ccc(O)c4O[C@H]2c2ncc(-c4ccccc4)cc2C[C@@]3(O)[C@H]1C5 | nM | 920
CN1CC[C@]23c4c5ccc(O)c4O[C@H]2c2ncc(-c4ccc(Cl)c(Cl)c4)cc2C[C@H]3[C@H]1C5 | nM | 74

* * *

Target: opioid κ receptor (Cavia porcellus)
Sequence (P41144 whole entry): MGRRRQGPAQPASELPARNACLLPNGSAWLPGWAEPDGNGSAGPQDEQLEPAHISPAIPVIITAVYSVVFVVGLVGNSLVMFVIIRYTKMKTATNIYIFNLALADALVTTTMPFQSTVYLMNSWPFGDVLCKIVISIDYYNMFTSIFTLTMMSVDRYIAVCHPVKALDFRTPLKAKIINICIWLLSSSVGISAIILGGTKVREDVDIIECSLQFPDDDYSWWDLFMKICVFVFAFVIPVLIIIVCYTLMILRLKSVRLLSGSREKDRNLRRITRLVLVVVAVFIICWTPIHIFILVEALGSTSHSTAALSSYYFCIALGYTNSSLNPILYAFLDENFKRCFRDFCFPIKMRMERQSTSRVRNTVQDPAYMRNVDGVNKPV
Details: read-out: Ki (nM) ± SEM κ; displacement of [3H]U69,593 (1.2-[…]), guinea pig brain membranes
metric.name: Ki (nM)

smiles.str | metric.name | test.result
CN1CC[C@]23c4c5ccc(O)c4O[C@H]2c2ncc(-c4ccc(Cl)cc4)cc2C[C@@]3(O)[C@H]1C5 | Ki | 468
CN1CC[C@]23c4c5ccc(O)c4O[C@H]2c2ncccc2C[C@@]3(O)[C@H]1C5 | Ki | 264
CN1CC[C@]23c4c5ccc(O)c4O[C@H]2c2ncc(-c4ccccc4)cc2C[C@@]3(O)[C@H]1C5 | Ki | 360
CN1CC[C@]23c4c5ccc(O)c4O[C@H]2c2ncc(-c4ccc(Cl)cc4Cl)cc2C[C@H]3[C@H]1C5 | Ki | 403

* * *

Reported Ki values follow for various compounds
Target: opioid δ receptor (Rattus norvegicus)
Construct: Rat membranes are prepared each day using a partially thawed frozen rat brain; from tissue; host or cells: rat brain membranes
Sequence (P33533 whole entry): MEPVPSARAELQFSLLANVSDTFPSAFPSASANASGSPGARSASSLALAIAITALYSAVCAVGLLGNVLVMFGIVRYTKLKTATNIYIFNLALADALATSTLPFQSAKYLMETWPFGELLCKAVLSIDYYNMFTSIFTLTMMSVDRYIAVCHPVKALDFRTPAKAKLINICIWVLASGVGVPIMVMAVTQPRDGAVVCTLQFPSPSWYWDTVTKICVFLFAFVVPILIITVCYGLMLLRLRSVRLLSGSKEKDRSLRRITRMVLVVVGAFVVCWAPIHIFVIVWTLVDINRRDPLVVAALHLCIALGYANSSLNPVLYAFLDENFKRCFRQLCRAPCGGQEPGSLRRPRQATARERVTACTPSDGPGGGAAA
Test: Opioid δ receptor binding, [3H]DADLE displacement in rat brain membranes
Settings: displacement of [3H]DADLE (1.3-2.0 nM), rat brain membranes, 100 nM DAMGO to block μ sites; read-out: Ki (nM) ± SEM δ

smiles.str | assayed.system | Ki, nM
COc1ccc2c3c1O[C@H]1c4ncc(-c5ccc(Cl)cc5)cc4C[C@H]4[C@@H](C2)N(CC2CC2)CC[C@]314 | opioid δ receptor (Rattus norvegicus) | 41
Oc1ccc2c3c1O[C@H]1c4ncc(-c5ccc(Cl)cc5)cc4C[C@H]4[C@@H](C2)N(CC2CC2)CC[C@]314 | opioid δ receptor (Rattus norvegicus) | 2.6
CN1CC[C@]23c4c5ccc(O)c4O[C@H]2c2ncccc2C[C@H]3[C@H]1C5 | opioid δ receptor (Rattus norvegicus) | 8
CN1CC[C@]23c4c5ccc(O)c4O[C@H]2c2ncc(-c4ccccc4)cc2C[C@@]3(O)[C@H]1C5 | opioid δ receptor (Rattus norvegicus) | 2.9
COc1ccc2c3c1O[C@H]1c4ncccc4C[C@@]4(O)[C@@H](C2)N(C)CC[C@]314 | opioid δ receptor (Rattus norvegicus) | 143
C=CCN1CC[C@]23c4c5ccc(O)c4O[C@H]2c2ncc(-c4ccc(Cl)cc4)cc2C[C@@]3(O)[C@H]1C5 | opioid δ receptor (Rattus norvegicus) | 8.2

* * *

Target: UniProt:P41144
Details: ratio of binding Ki values

compound | assayed.system | result.comparator | selectivity ratio κ/δ
CN1CC[C@]23c4c5ccc(O)c4O[C@H]2c2ncc(-c4ccc(Cl)c(Cl)c4)cc2C[C@H]3[C@H]1C5 | UniProt:P41144 | = | 75
CN1CC[C@]23c4c5ccc(O)c4O[C@H]2c2ncc(-c4ccc(Cl)cc4Cl)cc2C[C@H]3[C@H]1C5 | UniProt:P41144 | = | 366
CN1CC[C@]23c4c5ccc(O)c4O[C@H]2c2ncc(-c4ccc(Cl)cc4)cc2C[C@H]3[C@H]1C5 | UniProt:P41144 | = | 18
COc1ccc2c3c1OC1c4ncc(-c5ccc(Br)cc5)cc4CC4(O)C(C2)N(C)CCC314 (stereo not shown) | UniProt:P41144 | = | 320
CN1CC[C@]23c4c5ccc(O)c4O[C@H]2c2ncccc2C[C@H]3[C@H]1C5 | UniProt:P41144 | = | 8
CN1CC[C@]23c4c5ccc(O)c4O[C@H]2c2ncccc2C[C@@]3(O)[C@H]1C5 | UniProt:P41144 | = | 15
Oc1ccc2c3c1O[C@H]1c4ncc(-c5ccc(Cl)cc5)cc4C[C@H]4[C@@H](C2)N(CC2CC2)CC[C@]314 | UniProt:P41144 | = | 2.3
CN1CC[C@]23c4c5ccc(O)c4O[C@H]2c2ncc(-c4ccccc4)cc2C[C@@]3(O)[C@H]1C5 | UniProt:P41144 | = | 124
COc1ccc2c3c1OC1c4ncc(-c5ccccc5)cc4CC4(O)C(C2)N(C)CCC314 (stereo not shown) | UniProt:P41144 | > | 294
CN1CC[C@]23c4c5ccc(O)c4O[C@H]2c2ncc(-c4ccc(Br)cc4)cc2C[C@H]3[C@H]1C5 | UniProt:P41144 | = | 18
CN1CCC23c4c5ccc(O)c4OC2c2ncc(-c4ccc(Br)cc4)cc2CC3(O)C1C5 (stereo not shown) | UniProt:P41144 | = | 108
CN1CC[C@]23c4c5ccc(O)c4O[C@H]2c2ncc(-c4ccccc4)cc2C[C@H]3[C@H]1C5 | UniProt:P41144 | = | 43
CN1CC[C@]23c4c5ccc(O)c4O[C@H]2c2ncc(-c4ccc(Cl)cc4)cc2C[C@@]3(O)[C@H]1C5 | UniProt:P41144 | = | 118
